Values from the kinase profiling compilation of Christmann-Franck et al. (2016)

# target: TYRO3 (human)
# assay text: radiometric filter-binding kinase assay, Kinase HotSpot
# condition label: compound 0.5 µM; ATP 10 µM
readout type: residual activity (%)
Supply the numeric figure in %, leaving out any unit text.

item smiles | target | residual activity (%)
O=c1[nH]c2ccccc2n1C1CCN(Cc2ccc(-c3nc4cc5[nH]cnc5cc4nc3-c3ccccc3)cc2)CC1 | TYRO3 (human) | 103
N#CCCc1ccc2c(c1)-c1[nH]c3ccc([N+](=O)[O-])cc3c1CC(=O)N2 | TYRO3 (human) | 94.8
O=C1NC(=O)c2cc(Nc3ccc(F)cc3)c(Nc3ccc(F)cc3)cc21 | TYRO3 (human) | 94.8
COc1cccc(-c2cc(=O)c3ccccc3o2)c1N | TYRO3 (human) | 96.9

Incoming: Request the reported residual activity associated with CCOc1cc2ncnc(Nc3cccc(Br)c3)c2cc1OCC
Outgoing: 92.2

Incoming: If you can, please state the reported residual activity value of O=C1NC(=O)c2c1c1c3ccccc3[nH]c1c1[nH]c3cc(Br)ccc3c21 .
Outgoing: 89.7

Incoming: Which value of residual activity has been reported for O=c1cc(N2CCOCC2)oc2c(-c3ccccc3)cccc12 in the records?
Outgoing: 107

Incoming: Which residual activity value belongs to COc1cc2ncnc(Nc3ccc(O)c(Br)c3)c2cc1OC ?
Outgoing: 78.6

Incoming: Quick check: residual activity of CCc1nc(-c2ccc(OC)cc2)[nH]c1-c1ccncc1 ?
Outgoing: 97.9

Incoming: residual activity lookup needed for O=C(c1ccccc1)c1ccc(N2CCOCC2)cc1O , thanks.
Outgoing: 101

Incoming: Which residual activity value is on record for O=c1c2ccccc2[nH]c(=S)n1CCN1CCC(=C(c2ccc(F)cc2)c2ccc(F)cc2)CC1 ?
Outgoing: 91.1
